Target: T1, histidine-tagged human SIRPA v1 (Novoprotein) (human, UniProt P78324 31-370, limits assumed)
T1 construct: bought, soluble; also called huSIRPA; soluble huSIRPA; not shown: histidine tag
T1 sequence (P78324 31-370 limits assumed): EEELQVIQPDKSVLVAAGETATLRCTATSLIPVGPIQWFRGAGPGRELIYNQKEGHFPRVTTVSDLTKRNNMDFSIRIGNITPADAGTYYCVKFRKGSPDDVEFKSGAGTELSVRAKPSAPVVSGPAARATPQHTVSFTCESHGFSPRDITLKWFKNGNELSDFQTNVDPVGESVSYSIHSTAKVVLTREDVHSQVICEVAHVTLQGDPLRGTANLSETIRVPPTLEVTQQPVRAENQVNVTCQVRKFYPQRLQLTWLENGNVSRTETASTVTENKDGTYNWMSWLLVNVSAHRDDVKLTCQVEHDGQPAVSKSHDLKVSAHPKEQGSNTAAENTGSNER
Experiment: BLI (Octet), antibody on anti-human IgG Fc sensor, His-huSIRPA in solution, single-curve 1:1 fit
measuredAttribute: koff (s⁻¹)
Answers are plain numbers, in s⁻¹.

stdin: Name the recorded koff of the item 3F9-17 (antibody, human IgG1, V domains shown, also called mAb 3F9-17) VH: EVQLLESGGGLVQPGGSLRLSCAASGFTFSSYAMSWVRQAPGKGLEWVATISEYGGSYTYYAESVKGRFTISRDNSKNTLYLQMNSLRAEDTAVYYCARPPYDDYYGGFRYWGQGTLVTVSS VL: DIQLTQSPSSLSASVGDRVTITCRASKSVSSGGYSYMHWYQQKPGKAPKLLIYLASNLESGVPSRFSGSGSGTDFTLTISSVQPEDFATYYCQHNRELPWTFGQGTKLEIK in your answer.
stdout: 0.000238
